biological target: Histone deacetylase 1 (Homo sapiens)
Sequence (Q13547 whole entry): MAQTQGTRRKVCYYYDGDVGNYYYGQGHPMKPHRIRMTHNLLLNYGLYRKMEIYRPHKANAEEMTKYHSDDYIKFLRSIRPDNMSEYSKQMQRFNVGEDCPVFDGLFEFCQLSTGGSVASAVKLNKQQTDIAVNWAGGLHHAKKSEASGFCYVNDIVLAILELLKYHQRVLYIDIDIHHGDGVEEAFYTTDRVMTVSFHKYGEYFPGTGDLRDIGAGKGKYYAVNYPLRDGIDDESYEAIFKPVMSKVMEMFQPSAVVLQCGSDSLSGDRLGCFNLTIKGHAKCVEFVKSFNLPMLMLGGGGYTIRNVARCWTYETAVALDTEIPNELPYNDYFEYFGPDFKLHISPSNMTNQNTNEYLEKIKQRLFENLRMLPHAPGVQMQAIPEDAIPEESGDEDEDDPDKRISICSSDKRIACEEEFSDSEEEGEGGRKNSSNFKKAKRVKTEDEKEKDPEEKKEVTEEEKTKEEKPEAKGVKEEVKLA
Measured property: IC50 (nM)
One number for each entry, in nM.

Some solved entries appear below for comparison.
structure=CCC(=O)CCCCC[C@H](NC(=O)[C@H]1CC12CCN(C)CC2)c1[nH]c(-c2ccccc2F)nc1C#N measured_property=IC50 u=nM reported_value=17
structure=CCC(=O)CCCCC[C@H](NC(=O)C1CN(C)C1)c1[nH]c(-c2ccc(F)cc2)nc1C(N)=O measured_property=IC50 u=nM reported_value=3.5

Please give IC50 for each item listed below.
1. CCC(=O)CCCCC[C@H](NC(=O)[C@H]1CC12CCN(C)CC2)c1[nH]c(-c2ccc(-c3cccnc3)cc2)nc1C#N
2. CCC(=O)CCCCC[C@H](NC(=O)[C@H]1CC12CCN(CC)CC2)c1[nH]c(-c2ccc(F)cc2)nc1C(N)=O

// result
1. 0.2
2. 0.4
